The values you see were collected from patent US7138411B2.

readout.name: melting point

These recorded examples may help you get a feel for the data.
CCc1cccc2c1OC(C(F)(F)F)C(C(=O)O)=C2 (centres unmarked) [Example 28]    185.4 to 186.8 °C
N#Cc1ccc(Oc2cc3c(cc2Cl)C=C(C(=O)O)C(C(F)(F)F)O3)cc1 (centres unmarked) [Example 185]    212.5 to 215.7 °C
O=C(O)C1=Cc2cc(Cl)c(Oc3ccc(Cl)cc3Br)cc2OC1C(F)(F)F (centres unmarked) [Example 188]    223.6 to 225.6 °C
O=C(O)C1=Cc2cc(Cl)c(Oc3ccc4cc(Br)ccc4c3)cc2OC1C(F)(F)F (centres unmarked) [Example 189]    252.6 to 254.8 °C
O=C(O)C1=Cc2cc(Cl)c([S+]([O-])c3ccc(Cl)cc3)cc2OC1C(F)(F)F (centres unmarked) [Example 193]    213.8 to 217.4 °C
N#Cc1ccc2c(c1)C=C(C(=O)O)C(C(F)(F)F)N2 (centres unmarked) [Example 164]    238 to 240 °C
O=C(O)C1=Cc2cc(Cl)c(Oc3ccc(Cl)cc3Cl)cc2OC1C(F)(F)F (centres unmarked) [Example 197]    233 to 234 °C
O=C(O)C1=Cc2cc(C(=O)c3ccccc3)ccc2OC1C(F)(F)F (centres unmarked) [Example 96]    269.8 to 270.8 °C
CC(C)Oc1ccc2c(c1)OC(C(F)(F)F)C(C(=O)O)=C2 (centres unmarked) [Example 20]    161 to 163 °C
COc1c(Cl)cc2c(c1Cl)OC(C(F)(F)F)C(C(=O)O)=C2 (centres unmarked) [Example 61]    195.6 to 199.1 °C

QUERY: Output measured melting point for this item: CC(C)(C)c1ccc2c(c1)C=C(C(=O)O)C(C(F)(F)F)O2 (centres unmarked) [Example 89]
RESULT: 170.6 to 173.2 °C

QUERY: Output measured melting point for this item: O=C(O)C1=Cc2cc(CO)ccc2OC1C(F)(F)F (centres unmarked) [Example 80]
RESULT: 177.5 to 180.8 °C

QUERY: Output measured melting point for this item: O=C(O)C1=Cc2ccc(Cl)c(Cl)c2OC1C(F)(F)F (centres unmarked) [Example 19]
RESULT: 219.5 to 220.9 °C
